In this section, each of the compounds is paired with its reported non-toxic to macrophage cells up to a concentration of.
Test system: murine macrophage (J774) cells
assay-summary: Cytotoxicity against J774 macrophage cells
Type: cell-based
cond: 24-hour incubation, MTS, tested 8, 16, 32 μg/mL
Give the value, in units of µg/mL, as a plain number.

Fill blank: measured non-toxic to macrophage cells up to a concentration of of the compound `C/C(=N\NC(=N)N)c1sc(-c2ccc(C#CC3CC3)cc2)nc1C` is ____.
8

Would you mind doing `CCCCCC#Cc1ccc(-c2nc(C)c(/C(C)=N/NC(=N)N)s2)cc1` as well?
16

Subsequent entry: `C/C(=N\NC(=N)N)c1sc(-c2ccc(C#CC3CCCC3)cc2)nc1C`
8

Would you kindly repeat that for `CCCC#Cc1ccc(-c2nc(C)c(/C(C)=N/NC(=N)N)s2)cc1` ?
16

* * *

assay-summary: In vivo pharmacokinetics in rat, single IV bolus
Design: species or system Sprague-Dawley rats
cond: male, Sprague-Dawley, plasma, 2 μM solution, t1/2, rat, two-compartment model
measurement-type: half-life

Value lookup for half-life; key = `C/C(=N\NC(=N)N)c1sc(-c2ccc(C#CC3CC3)cc2)nc1C`
~4.5 h

* * *

assay-summary: Metabolic stability in pooled human liver microsomes
Assay type: in vitro ADME
cond: human, pooled human liver microsomes, pH 7.4
measurement-type: half-life at 0.1 μM (h)
Write the value in h as a bare number.

Consider the compound `C/C(=N\NC(=N)N)c1sc(-c2ccc(C#CC3CC3)cc2)nc1C` and give its measured half-life at 0.1 μM.
4.8

* * *

assay-summary: Metabolic stability in pooled human liver microsomes
Assay type: in vitro ADME
cond: human, pooled human liver microsomes, pH 7.4
measurement-type: microsomal CLint at 0.1 μM

// lookup microsomal CLint at 0.1 μM for `C/C(=N\NC(=N)N)c1sc(-c2ccc(C#CC3CC3)cc2)nc1C`
< 116 µL/min/mg
